# Lookup of reported IC50 keyed by entry
Test system: PC3 Prostate Cancer Cells
procedure_summary: Growth inhibition assay, PC3 cells
Type: cell-based
condition_info: Table 1C
experimental_endpoint: IC50 (µM)

{"columns": ["compound", "unit_abbreviation", "measured"],
 "data": [
  ["COC(C(=NOCC(=O)NC(Cc1c[nH]c2ccccc12)C(=O)N1CCC1)C(O)C(C)O)C1Cc2cc3cc(OC4CC(OC5CC(O)C(O)C(C)O5)C(O)C(C)O4)c(C)c(O)c3c(O)c2C(=O)C1OC1CC(OC2CC(OC3CC(C)(O)C(O)C(C)O3)C(O)C(C)O2)C(O)C(C)O1 (stereo not shown)", "µM", 0.73],
  ["COC(C(=NOCC(=O)NC(Cc1c[nH]c2ccccc12)C(=O)N1CCOCC1)C(O)C(C)O)C1Cc2cc3cc(OC4CC(OC5CC(O)C(O)C(C)O5)C(O)C(C)O4)c(C)c(O)c3c(O)c2C(=O)C1OC1CC(OC2CC(OC3CC(C)(O)C(O)C(C)O3)C(O)C(C)O2)C(O)C(C)O1 (stereo not shown)", "µM", 2.7]
]}
